System: YAP/TAZ-TEAD transcription
procedure-text: Reporter gene assay for measuring the inhibition of YAP/TAZ-TEAD transcription (TEAD-responsive element luciferase reporter in Hek293T cells)
Format: cell-based
conditions: Homo sapiens, HEK-293T; Hek293T cells transfected with TEAD-responsive luciferase reporter, 24 hours incubation
EC50 for assorted compounds

The following compounds have reported results that may help.
| compound | target-desc | EC50 |
| --- | --- | --- |
| C=C(CNc1nn(-c2ccc(C(F)(F)F)cc2)c2ccccc12)C(=O)O | YAP/TAZ-TEAD transcription | < 1 µM |
| C=CC(=O)Nc1cn(-c2cccc(Cl)c2)c2ccccc12 | YAP/TAZ-TEAD transcription | 1 to 20 µM |
| O=S(=O)(NCc1nn(-c2ccc(C(F)(F)F)cc2)c2ccccc12)c1cccnc1 | YAP/TAZ-TEAD transcription | > 20 µM |
| CC(=O)NCc1nn(-c2ccc(C(F)(F)F)cc2)c2ccc(C(F)(F)F)cc12 | YAP/TAZ-TEAD transcription | 1 to 20 µM |
| C#CCOc1ccc2c(c1)c(CNS(C)(=O)=O)nn2-c1ccc(C(F)(F)F)cc1 | YAP/TAZ-TEAD transcription | > 20 µM |
| C=CC(=O)NCc1nn(C2CCC(F)(F)CC2)c2ccccc12 | YAP/TAZ-TEAD transcription | < 1 µM |

[Q] Tell me the measured EC50 of C=CC(=O)NCc1nn(-c2ccc(C(F)(F)F)cc2)c2ccc(C(F)(F)F)cc12 , please.
[A] < 1 µM

[Q] Tell me the measured EC50 of C=CC(=O)NCc1nn(-c2ccc(C(F)(F)F)cc2)c2ccc(OCc3cc[nH]n3)cc12 , please.
[A] < 1 µM

[Q] Tell me the measured EC50 of CS(=O)(=O)NCc1nn(-c2ccc(C(F)(F)F)cc2)c2ccc(OCC3CCOC3)cc12 (racemic) , please.
[A] 1 to 20 µM

[Q] Tell me the measured EC50 of Cn1cc(S(=O)(=O)NCc2nn(-c3ccc(C(F)(F)F)cc3)c3ccccc23)cn1 , please.
[A] > 20 µM
